Would you kindly list pIC50 for each of these compounds?
- System: rat EP1 receptor (Rattus norvegicus)
- Construct: expressed in transfected cells; host or cells: COS-1 cells, transient transfection with Lipofectamine 2000
- Assay: Test for confirmation of EP1 receptor antagonism: inhibition of prostaglandin E2-induced increase in intracellular calcium concentration (Method A or Method B)
- Assay type: cell-based
- Study Conditions: Method B (Calcium kit II Fluo 4, FDSS 7000); rat EP1 receptor-expressing cells; prostaglandin E2 10 nM
Numbers only, as −log10 of the molar value.

Reference set (7 entries):
[
  {
    "Compound": "CCC(C)c1[nH]c2cc(OC)c(Cl)cc2c1Cc1cccc(C(=O)O)n1 (centres unmarked)",
    "pIC50": 7.40
  },
  {
    "Compound": "COc1cc2[nH]c(-c3ccsc3)c(Cc3cccc(C(=O)O)n3)c2cc1C",
    "pIC50": 7.66
  },
  {
    "Compound": "Cc1cc2c(Cc3cccc(C(=O)O)n3)c(-c3ccsc3)[nH]c2cc1C1CC1",
    "pIC50": 7.31
  },
  {
    "Compound": "O=C(O)c1cccc(Cc2c(-c3ccccc3)[nH]c3cc(C4CC4)ccc23)n1",
    "pIC50": 7.49
  },
  {
    "Compound": "COc1cc2[nH]c(-c3cccnc3)c(Cc3cccc(C(=O)O)n3)c2cc1C",
    "pIC50": 7.52
  },
  {
    "Compound": "COc1cc2c(Cc3cccc(C(=O)O)n3)c(-c3ccsc3)[nH]c2cc1Cl",
    "pIC50": 7.74
  },
  {
    "Compound": "COc1ccc2c(Cc3cccc(C(=O)O)c3)c(-c3ccoc3)[nH]c2c1",
    "pIC50": 7.32
  }
]

Now for another entry.
Return value of pIC50 for input COc1ccc2c(Cc3cccc(C(=O)O)n3)c(-c3cncc(F)c3)[nH]c2c1 , no commentary. 7.57

---

Would you kindly list pIC50 for each of these compounds?
- System: rat EP1 receptor (Rattus norvegicus, UniProt P70597)
- Construct: expressed in transfected cells; host or cells: COS-1 cells, transient transfection with Lipofectamine 2000
- Sequence (P70597 whole entry): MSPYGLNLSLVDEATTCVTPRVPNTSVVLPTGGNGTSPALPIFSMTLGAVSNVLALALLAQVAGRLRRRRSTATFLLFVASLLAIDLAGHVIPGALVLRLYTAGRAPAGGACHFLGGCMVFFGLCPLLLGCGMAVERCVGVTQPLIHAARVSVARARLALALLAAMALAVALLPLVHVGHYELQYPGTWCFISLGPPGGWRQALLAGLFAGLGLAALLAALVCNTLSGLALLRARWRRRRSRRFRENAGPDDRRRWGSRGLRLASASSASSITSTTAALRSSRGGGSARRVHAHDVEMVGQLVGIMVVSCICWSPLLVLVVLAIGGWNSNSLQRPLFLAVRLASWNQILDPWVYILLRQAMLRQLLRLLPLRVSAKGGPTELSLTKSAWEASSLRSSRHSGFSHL
- Assay: Test for confirmation of EP1 receptor antagonism: inhibition of prostaglandin E2-induced increase in intracellular calcium concentration (Method A or Method B)
- Type: cell-based
- Study Conditions: Method B (Calcium kit II Fluo 4, FDSS 7000); rat EP1 receptor-expressing cells; prostaglandin E2 10 nM
Numbers only, as −log10 of the molar value.

[
  {
    "Compound": "COc1cc2[nH]c(C(C)(C)C)c(Cc3cccc(C(=O)O)n3)c2cc1Cl [Example 16-89]",
    "System": "rat EP1 receptor (Rattus norvegicus, UniProt P70597)",
    "pIC50": 7.66
  }
]

For each of the compounds below, state pIC50.
1. Cc1cc2c(Cc3cccc(C(=O)O)n3)c(-c3ccsc3)[nH]c2cc1Cl [Example 16-92]
2. COc1cc2[nH]c(-c3ccsc3)c(Cc3cccc(C(=O)O)n3)c2cc1Cl [Example 16-29]
3. COc1cc2[nH]c(-c3ccc(F)cc3)c(Cc3cccc(C(=O)O)n3)c2cc1C [Example 16-85]
4. COc1ccc2c(Cc3cccc(C(=O)O)n3)c(-c3cccs3)[nH]c2c1 [Example 11-17]
5. Cc1cc2[nH]c(-c3cccnc3)c(Cc3cccc(C(=O)O)n3)c2cc1C [Example 16-58]
6. COc1cc2[nH]c(-c3ccccc3)c(Cc3cccc(C(=O)O)n3)c2cc1F [Example 16-16]
7. COc1ccc2c(Cc3cccc(C(=O)O)n3)c(-c3cccnc3)[nH]c2c1 [Example 11-11]
8. COc1ccc2c(Cc3cccc(C(=O)O)n3)c(-c3cccc(F)c3)[nH]c2c1 [Example 11-5]

7.52
7.57
7.74
7.30
7.42
7.60
7.49
7.85

---

Would you kindly list IC50 for each of these compounds?
- System: rat EP1 receptor (Rattus norvegicus, UniProt P70597)
- Construct: expressed in transfected cells; host or cells: COS-1 cells, transient transfection with Lipofectamine 2000
- Assay: Test for confirmation of EP1 receptor antagonism: inhibition of prostaglandin E2-induced increase in intracellular calcium concentration (Method A or Method B)
- Format: cell-based
- Study Conditions: Method B (Calcium kit II Fluo 4, FDSS 7000); rat EP1 receptor-expressing cells; prostaglandin E2 10 nM
Numbers only, in nM.

Reference set (3 entries):
[
  {
    "Smiles Record": "COc1cc2c(Cc3cccc(C(=O)O)n3)c(-c3ccccc3)[nH]c2cc1C",
    "Display Unit": "nM",
    "IC50": 24
  },
  {
    "Smiles Record": "COc1ccc2c(Cc3cccc(C(=O)O)n3)c(-c3cc(F)c(F)c(F)c3)[nH]c2c1",
    "Display Unit": "nM",
    "IC50": 44
  },
  {
    "Smiles Record": "O=C(O)c1cccc(Cc2c(-c3ccccc3)[nH]c3cc(C4CC4)c(F)cc23)n1",
    "Display Unit": "nM",
    "IC50": 34
  }
]

Now for another entry.
Return value of IC50 for input COc1ccc2c(Cc3nc(C(=O)O)cs3)c(-c3ccccc3)[nH]c2c1 , no commentary. 50

---

- System: rat EP1 receptor (Rattus norvegicus, UniProt P70597)
- Construct: expressed in transfected cells; host or cells: COS-1 cells, transient transfection with Lipofectamine 2000
- Assay: Test for confirmation of EP1 receptor antagonism: inhibition of prostaglandin E2-induced increase in intracellular calcium concentration (Method A or Method B)
- Type: cell-based
- Study Conditions: Method A (Fluo-4 NW, FlexStation); rat EP1 receptor-expressing cells; prostaglandin E2 10 nM
Would you kindly list IC50 for each of these compounds?

[
  {
    "Smiles Record": "O=C(O)c1cccc(Cc2c(-c3ccccc3)[nH]c3cc(C(F)(F)F)ccc23)n1",
    "System": "rat EP1 receptor (Rattus norvegicus, UniProt P70597)",
    "Metric Name": "IC50",
    "Meas Value": "42 nM"
  },
  {
    "Smiles Record": "COc1ccc2c(Cc3cccc(C(=O)O)n3)c(-c3cccc(Cl)c3)[nH]c2c1",
    "System": "rat EP1 receptor (Rattus norvegicus, UniProt P70597)",
    "Metric Name": "IC50",
    "Meas Value": "23 nM"
  }
]

For each of the compounds below, state IC50.
1. CCc1ccc2c(Cc3cccc(C(=O)O)n3)c(-c3ccccc3)[nH]c2c1
2. COc1ccc2c(Cc3cccc(C(=O)O)c3)c(-c3ccsc3)[nH]c2c1
3. CCOc1ccc2c(Cc3cccc(C(=O)O)n3)c(-c3ccccc3)[nH]c2c1
4. COc1ccc2c(Cc3cccc(C(=O)O)n3)c(-c3ccccc3)[nH]c2c1
5. COc1ccc2c(Cc3cccc(C(=O)O)c3)c(-c3ccccc3)[nH]c2c1
6. COc1ccc2c(Cc3cccc(C(=O)O)n3)c(-c3ccsc3)[nH]c2c1

1. 28 nM
2. 40 nM
3. 44 nM
4. 10 nM
5. 32 nM
6. 11 nM

---

- System: rat EP1 receptor (Rattus norvegicus, UniProt P70597)
- Construct: expressed in transfected cells; host or cells: COS-1 cells, transient transfection with Lipofectamine 2000
- Assay: Test for confirmation of EP1 receptor antagonism: inhibition of prostaglandin E2-induced increase in intracellular calcium concentration (Method A or Method B)
- Format: cell-based
- Study Conditions: Method B (Calcium kit II Fluo 4, FDSS 7000); rat EP1 receptor-expressing cells; prostaglandin E2 10 nM
Metric Name: IC50 (µM)
Answers are plain numbers, in µM.

Reference set (5 entries):
[
  {
    "Smiles Record": "COc1cc2[nH]c(-c3ccccc3)c(Cc3cccc(C(=O)O)n3)c2cc1Cl",
    "System": "rat EP1 receptor (Rattus norvegicus, UniProt P70597)",
    "Display Unit": "µM",
    "IC50": 0.036
  },
  {
    "Smiles Record": "CCOc1cc2[nH]c(-c3ccccc3)c(Cc3cccc(C(=O)O)n3)c2cc1C",
    "System": "rat EP1 receptor (Rattus norvegicus, UniProt P70597)",
    "Display Unit": "µM",
    "IC50": 0.017
  },
  {
    "Smiles Record": "COc1cc2[nH]c(C(C)(C)C)c(Cc3cccc(C(=O)O)n3)c2cc1C",
    "System": "rat EP1 receptor (Rattus norvegicus, UniProt P70597)",
    "Display Unit": "µM",
    "IC50": 0.047
  },
  {
    "Smiles Record": "Cc1cc2[nH]c(-c3ccsc3)c(Cc3cccc(C(=O)O)n3)c2cc1F",
    "System": "rat EP1 receptor (Rattus norvegicus, UniProt P70597)",
    "Display Unit": "µM",
    "IC50": 0.039
  },
  {
    "Smiles Record": "Cc1ccc2c(Cc3cccc(C(=O)O)n3)c(-c3ccsc3)[nH]c2c1",
    "System": "rat EP1 receptor (Rattus norvegicus, UniProt P70597)",
    "Display Unit": "µM",
    "IC50": 0.024
  }
]

For each of the compounds below, state IC50.
1. O=C(O)c1cccc(Cc2c(-c3ccccc3)[nH]c3cc(Br)ccc23)n1
2. COc1cc2c(Cc3cccc(C(=O)O)n3)c(-c3ccsc3)[nH]c2cc1C

0.036
0.019

Return value of IC50 for input COc1cc2[nH]c(-c3ccccc3)c(Cc3cccc(C(=O)O)n3)c2cc1C , no commentary. 0.023

// provenance: patent US20120122931A1
